- assay.method.text: Multiple ascending dose study, plasma pharmacokinetics
- Type: in vivo, human (healthy volunteers)
- condition.notes: human, plasma; 1.5 mg oral QD, Day 1; read-out: Tmax (median)
- Procedure: A clinical study was developed to evaluate safety, tolerability, pharmacokinetics, and pharmacodynamics of Compound 1 at plasma steady-state in 40 healthy human volunteers. […] Blood samples were collected, and plasma concentrations were measured using a validated high performance liquid chromatography/liquid chromatography-mass spectrometry/mass spectrometry method. […]
result.type: Tmax at 24 h (h)
Kindly provide the numeric value in h only, without the unit symbol.

Memo: CC(C)(O)c1cnn2c(-c3ccc(F)c(-c4c(F)cccc4C#N)c3)cnc2n1 , reported Tmax at 24 h: 3

---

- assay.method.text: Multiple ascending dose study, plasma pharmacokinetics
- Assay type: in vivo, human (healthy volunteers)
- condition.notes: human, plasma, po, 1.5 mg, 1.5 mg oral QD, Day 1; read-out: AUC0-24 (median)
result.type: AUC(0-t) at 24 h

Memo: CC(C)(O)c1cnn2c(-c3ccc(F)c(-c4c(F)cccc4C#N)c3)cnc2n1 , reported AUC(0-t) at 24 h: 227 ng·h/mL

---

- assay.method.text: Multiple ascending dose study, plasma pharmacokinetics
- Format: in vivo, human (healthy volunteers)
- condition.notes: human, plasma, po, 5 mg, 5.0 mg oral QD, Day 1; read-out: Cmax (median)
result.type: Cmax at 24 h (ng/mL)
Kindly provide the numeric value in ng/mL only, without the unit symbol.

Memo: CC(C)(O)c1cnn2c(-c3ccc(F)c(-c4c(F)cccc4C#N)c3)cnc2n1 , reported Cmax at 24 h: 49.5

---

- assay.method.text: Multiple ascending dose study, plasma pharmacokinetics
- Type: in vivo, human (healthy volunteers)
- condition.notes: human, plasma, po, 0.5 mg, 0.5 mg oral QD, Day 1; read-out: AUC0-24 (median)
result.type: AUC(0-t) at 24 h (ng·h/mL)
Kindly provide the numeric value in ng·h/mL only, without the unit symbol.

Memo: CC(C)(O)c1cnn2c(-c3ccc(F)c(-c4c(F)cccc4C#N)c3)cnc2n1 , reported AUC(0-t) at 24 h: 54.8

---

- assay.method.text: Multiple ascending dose study, plasma pharmacokinetics
- Format: in vivo, human (healthy volunteers)
- condition.notes: human, plasma; 0.5 mg oral QD, Day 1; read-out: Tmax (median)
result.type: Tmax at 24 h (h)
Kindly provide the numeric value in h only, without the unit symbol.

Memo: CC(C)(O)c1cnn2c(-c3ccc(F)c(-c4c(F)cccc4C#N)c3)cnc2n1 [Compound 1] , reported Tmax at 24 h: 3

---

- assay.method.text: Multiple ascending dose study, plasma pharmacokinetics
- Format: in vivo, human (healthy volunteers)
- condition.notes: human, plasma, po, 5 mg, 5.0 mg oral QD, Day 12; read-out: Cmax (median)
- Description: A clinical study was developed to evaluate safety, tolerability, pharmacokinetics, and pharmacodynamics of Compound 1 at plasma steady-state in 40 healthy human volunteers. […] Blood samples were collected, and plasma concentrations were measured using a validated high performance liquid chromatography/liquid chromatography-mass spectrometry/mass spectrometry method. […]
result.type: Cmax at 288 h (ng/mL)
Kindly provide the numeric value in ng/mL only, without the unit symbol.

Memo: CC(C)(O)c1cnn2c(-c3ccc(F)c(-c4c(F)cccc4C#N)c3)cnc2n1 , reported Cmax at 288 h: 106

---

- assay.method.text: Multiple ascending dose study, plasma pharmacokinetics
- Format: in vivo, human (healthy volunteers)
- condition.notes: human, plasma; 2.0 mg oral QD, Day 1; read-out: Tmax (median)
result.type: Tmax at 24 h (h)
Kindly provide the numeric value in h only, without the unit symbol.

Memo: CC(C)(O)c1cnn2c(-c3ccc(F)c(-c4c(F)cccc4C#N)c3)cnc2n1 [Compound 1] , reported Tmax at 24 h: 3

---

- assay.method.text: Multiple ascending dose study, plasma pharmacokinetics
- Type: in vivo, human (healthy volunteers)
- condition.notes: human, plasma, po, 2 mg, 2.0 mg oral QD, Day 1; read-out: Cmax (mean)
result.type: Cmax at 24 h (ng/mL)
Kindly provide the numeric value in ng/mL only, without the unit symbol.

Memo: CC(C)(O)c1cnn2c(-c3ccc(F)c(-c4c(F)cccc4C#N)c3)cnc2n1 [Compound 1] , reported Cmax at 24 h: 19.6

---

- assay.method.text: Multiple ascending dose study, plasma pharmacokinetics
- Assay type: in vivo, human (healthy volunteers)
- condition.notes: human, plasma, po, 5 mg, 5.0 mg oral QD, Day 12; read-out: Cmax (mean)
result.type: Cmax at 288 h (ng/mL)
Kindly provide the numeric value in ng/mL only, without the unit symbol.

Memo: CC(C)(O)c1cnn2c(-c3ccc(F)c(-c4c(F)cccc4C#N)c3)cnc2n1 [Compound 1] , reported Cmax at 288 h: 99.1

---

- assay.method.text: Multiple ascending dose study, plasma pharmacokinetics
- Format: in vivo, human (healthy volunteers)
- condition.notes: human, plasma, po, 1 mg, 1.0 mg oral QD, Day 1; read-out: AUC0-24 (mean)
result.type: AUC(0-t) at 24 h (µg·h/mL)
Kindly provide the numeric value in µg·h/mL only, without the unit symbol.

Memo: CC(C)(O)c1cnn2c(-c3ccc(F)c(-c4c(F)cccc4C#N)c3)cnc2n1 [Compound 1] , reported AUC(0-t) at 24 h: 0.118

---

- assay.method.text: Multiple ascending dose study, plasma pharmacokinetics
- Assay type: in vivo, human (healthy volunteers)
- condition.notes: human, plasma, po, 5 mg, 5.0 mg oral QD, Day 1; read-out: highest individual AUC0-24
result.type: AUC(0-t) at 24 h
A complete answer gives the number followed by the unit.

Memo: CC(C)(O)c1cnn2c(-c3ccc(F)c(-c4c(F)cccc4C#N)c3)cnc2n1 [Compound 1] , reported AUC(0-t) at 24 h: 853 ng·h/mL

---

- assay.method.text: Multiple ascending dose study, plasma pharmacokinetics
- Type: in vivo, human (healthy volunteers)
- condition.notes: human, plasma; 5.0 mg oral QD, Day 12; read-out: Tmax (median)
result.type: Tmax at 288 h (h)
Kindly provide the numeric value in h only, without the unit symbol.

Memo: CC(C)(O)c1cnn2c(-c3ccc(F)c(-c4c(F)cccc4C#N)c3)cnc2n1 , reported Tmax at 288 h: 3

---

- assay.method.text: Multiple ascending dose study, plasma pharmacokinetics
- Assay type: in vivo, human (healthy volunteers)
- condition.notes: human, plasma, po, 2 mg, 2.0 mg oral QD, Day 1; read-out: AUC0-24 (median)
result.type: AUC(0-t) at 24 h (µg·h/mL)
Kindly provide the numeric value in µg·h/mL only, without the unit symbol.

Memo: CC(C)(O)c1cnn2c(-c3ccc(F)c(-c4c(F)cccc4C#N)c3)cnc2n1 , reported AUC(0-t) at 24 h: 0.226

---

- assay.method.text: Multiple ascending dose study, plasma pharmacokinetics
- Assay type: in vivo, human (healthy volunteers)
- condition.notes: human, plasma, po, 2 mg, 2.0 mg oral QD, Day 12; read-out: Cmax (mean)
result.type: Cmax at 288 h (ng/mL)
Kindly provide the numeric value in ng/mL only, without the unit symbol.

Memo: CC(C)(O)c1cnn2c(-c3ccc(F)c(-c4c(F)cccc4C#N)c3)cnc2n1 , reported Cmax at 288 h: 49.8

---

- assay.method.text: Multiple ascending dose study, plasma pharmacokinetics
- Assay type: in vivo, human (healthy volunteers)
- condition.notes: human, plasma; up to 2.0 mg oral QD, Day 1; read-out: Tmax (median)
result.type: Tmax at 24 h (h)
Kindly provide the numeric value in h only, without the unit symbol.

Memo: CC(C)(O)c1cnn2c(-c3ccc(F)c(-c4c(F)cccc4C#N)c3)cnc2n1 [Compound 1] , reported Tmax at 24 h: 3

---

- assay.method.text: Multiple ascending dose study, plasma pharmacokinetics
- Assay type: in vivo, human (healthy volunteers)
- condition.notes: human, plasma, po; Day 1 and Day 12, all doses except 5.0 mg on Day 1; read-out: Tmax (median)
result.type: Tmax (h)
Kindly provide the numeric value in h only, without the unit symbol.

Memo: CC(C)(O)c1cnn2c(-c3ccc(F)c(-c4c(F)cccc4C#N)c3)cnc2n1 [Compound 1] , reported Tmax: 3

---

- assay.method.text: Multiple ascending dose study, plasma pharmacokinetics
- Type: in vivo, human (healthy volunteers)
- condition.notes: human, plasma, po, 5 mg, 5.0 mg oral QD, Day 12; read-out: t1/2 (median) (converted)
result.type: half-life (h)
Kindly provide the numeric value in h only, without the unit symbol.

Memo: CC(C)(O)c1cnn2c(-c3ccc(F)c(-c4c(F)cccc4C#N)c3)cnc2n1 , reported half-life: 37.1

---

- assay.method.text: Multiple ascending dose study, plasma pharmacokinetics
- Format: in vivo, human (healthy volunteers)
- condition.notes: human, plasma, po, 1 mg, 1.0 mg oral QD, Day 12; read-out: AUCtau (mean)
result.type: AUC tau (ng·h/mL)
Kindly provide the numeric value in ng·h/mL only, without the unit symbol.

Memo: CC(C)(O)c1cnn2c(-c3ccc(F)c(-c4c(F)cccc4C#N)c3)cnc2n1 , reported AUC tau: 410

---

- assay.method.text: Multiple ascending dose study, plasma pharmacokinetics
- Type: in vivo, human (healthy volunteers)
- condition.notes: human, plasma; 2.0 mg oral QD, Day 12; read-out: Tmax (median)
result.type: Tmax at 288 h (h)
Kindly provide the numeric value in h only, without the unit symbol.

Memo: CC(C)(O)c1cnn2c(-c3ccc(F)c(-c4c(F)cccc4C#N)c3)cnc2n1 , reported Tmax at 288 h: 3
